Study System: Peroxisome proliferator-activated receptor gamma (Homo sapiens)
Sequence (P37231 whole entry, the tested form may be a part): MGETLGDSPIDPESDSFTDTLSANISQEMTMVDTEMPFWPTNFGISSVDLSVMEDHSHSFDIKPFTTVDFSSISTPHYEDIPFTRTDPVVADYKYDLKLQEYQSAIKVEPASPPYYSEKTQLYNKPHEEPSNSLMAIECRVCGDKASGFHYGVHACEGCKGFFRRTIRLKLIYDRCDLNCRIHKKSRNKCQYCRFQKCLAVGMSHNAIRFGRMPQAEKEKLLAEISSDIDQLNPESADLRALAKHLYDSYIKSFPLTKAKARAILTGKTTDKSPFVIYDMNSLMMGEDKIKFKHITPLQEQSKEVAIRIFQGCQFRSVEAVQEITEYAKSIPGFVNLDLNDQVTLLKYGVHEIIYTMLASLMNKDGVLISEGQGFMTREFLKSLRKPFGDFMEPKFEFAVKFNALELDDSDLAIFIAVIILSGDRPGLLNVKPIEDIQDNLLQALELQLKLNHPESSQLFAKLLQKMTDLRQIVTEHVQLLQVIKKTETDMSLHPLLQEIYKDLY
Assay Procedure: Inverse agonist activity at His6-tagged PPARgamma LBD (unknown origin) assessed as inhibition of rosiglitazone-induced N-terminal biotinylated co-activator SRC1 box2 peptide recruitment measured after 30 mins by TR-FRET assay
Readout Name: IC50

Example entries begin here.
# Line Notation, Result
records = [
    ("O=C(O)c1ccc(NCc2c(-c3c(Cl)cccc3C(F)(F)F)noc2-c2cccs2)cc1", "> 100 µM"),
    ("O=C(O)c1ccc(NCc2c(-c3c(Cl)cccc3C(F)(F)F)noc2-c2ccccc2)cc1", "78.6 µM"),
    ("O=C(O)c1ccc(NCc2c(-c3c(Cl)cccc3C(F)(F)F)noc2-c2ccco2)cc1", "> 100 µM"),
    ("O=C(O)c1ccc(NCc2c(-c3c(Cl)cccc3C(F)(F)F)noc2-c2cccc(O)c2)cc1", "> 100 µM"),
]

[in] Name the reported IC50 value associated with the molecule O=C(O)c1ccc(NCc2c(-c3c(Cl)cccc3C(F)(F)F)noc2-c2cccc3ccccc23)cc1
[out] > 100 µM

---

Overview of reported permeability across a group of compounds:
Assay Procedure: Permeability of the compound at 500 uM after 20 hrs by PAMPA
Assay type: ADME
Reply with the number, then its unit.

[in] Name the reported permeability value associated with the compound O=C(O)c1ccc(-c2nn(C(=O)c3c(Cl)cccc3C(F)(F)F)c3ccccc23)cc1
[out] 23.7%

[in] Name the reported permeability value associated with the compound O=C(O)c1ccc(NC(=O)c2c(-c3c(Cl)cccc3C(F)(F)F)noc2-c2ccccc2)cc1
[out] 60.1%

[in] Name the reported permeability value associated with the compound O=C(O)c1ccc(NCc2c(-c3c(Cl)cccc3C(F)(F)F)noc2-c2cc[nH]c2)cc1
[out] 33.6%

[in] Name the reported permeability value associated with the compound O=C(O)c1ccc(NCc2c(-c3c(Cl)cccc3C(F)(F)F)noc2-c2ccco2)cc1
[out] 50.4%

---

Assay Procedure: Chemical stability of the compound in pH 7.4 aqueous buffer assessed as parent compound remaining at 2 uM measured after 24 hrs by LC-MS analysis
Format: physicochemical
Assay Setup: read-out: Stability
Overview of reported remaining at 24 h, 2 µM across a group of molecules:
Write it as a number; the unit % goes unstated.

# Line Notation, remaining at 24 h, 2 µM / %
rows = [
    ("O=C(O)c1ccc(NCc2c(-c3c(Cl)cccc3C(F)(F)F)noc2-c2cc[nH]c2)cc1", 95.3),
]

[in] Name the reported remaining at 24 h, 2 µM value associated with the molecule O=C(O)c1ccc(-c2nn(C(=O)c3c(Cl)cccc3C(F)(F)F)c3ccccc23)cc1
[out] 81

[in] Name the reported remaining at 24 h, 2 µM value associated with the molecule O=C(O)c1ccc(NC(=O)c2c(-c3c(Cl)cccc3C(F)(F)F)noc2-c2ccccc2)cc1
[out] 95.4

[in] Name the reported remaining at 24 h, 2 µM value associated with the molecule O=C(O)c1ccc(NCc2c(-c3c(Cl)cccc3C(F)(F)F)noc2-c2ccco2)cc1
[out] 100

---

Assay Procedure: Kinetic solubility of the compound in pH 7.4 aqueous buffer at 500 uM measured after 90 mins by spectrophotometric method
Type: physicochemical
Assay Setup: read-out: Kinetic_solubility
Overview of reported solubility kinetic at 1.5 h, 500 µM across a group of compounds:
Write it as a number; the unit µM goes unstated.

Example entries begin here.
# Line Notation, solubility kinetic at 1.5 h, 500 µM / µM
records = [
    ("O=C(O)c1ccc(-c2nn(C(=O)c3c(Cl)cccc3C(F)(F)F)c3ccccc23)cc1", 390),
    ("O=C(O)c1ccc(NC(=O)c2c(-c3c(Cl)cccc3C(F)(F)F)noc2-c2ccccc2)cc1", 490),
    ("O=C(O)c1ccc(NCc2c(-c3c(Cl)cccc3C(F)(F)F)noc2-c2cc[nH]c2)cc1", 411),
]

# next compound below
[in] Name the reported solubility kinetic at 1.5 h, 500 µM value associated with the compound O=C(O)c1ccc(NCc2c(-c3c(Cl)cccc3C(F)(F)F)noc2-c2ccco2)cc1
[out] 392

---

Assay Procedure: Stability in human liver microsomes assessed as parent compound remaining at 5 uM measured after 1 hr in presence of metabolic phase 2 cofactors UDPGA by LC-MS analysis
Format: ADME, Microsome
Assay Setup: read-out: Stability
Readout Name: remaining at 1 h, 5 µM

Example entries begin here.
# Line Notation, Result
rows = [
    ("O=C(O)c1ccc(NCc2c(-c3c(Cl)cccc3C(F)(F)F)noc2-c2cc[nH]c2)cc1", "69.8%"),
    ("O=C(O)c1ccc(NC(=O)c2c(-c3c(Cl)cccc3C(F)(F)F)noc2-c2ccccc2)cc1", "100%"),
    ("O=C(O)c1ccc(-c2nn(C(=O)c3c(Cl)cccc3C(F)(F)F)c3ccccc23)cc1", "47.1%"),
]

[in] Name the reported remaining at 1 h, 5 µM value associated with the compound O=C(O)c1ccc(NCc2c(-c3c(Cl)cccc3C(F)(F)F)noc2-c2ccco2)cc1
[out] 92.8%

---

Assay Procedure: Stability of the compound in plasma (unknown origin) assessed as parent compound remaining at 5 uM measured after 1 hr by LC-MS analysis
Type: ADME, cell-free
Assay Setup: read-out: Stability
Readout Name: remaining at 1 h, 5 µM (%)
Write it as a number; the unit % goes unstated.

Example entries begin here.
# Line Notation, Measured Number
records = [
    ("O=C(O)c1ccc(NCc2c(-c3c(Cl)cccc3C(F)(F)F)noc2-c2cc[nH]c2)cc1", 85.9),
    ("O=C(O)c1ccc(NC(=O)c2c(-c3c(Cl)cccc3C(F)(F)F)noc2-c2ccccc2)cc1", 99.9),
    ("O=C(O)c1ccc(NCc2c(-c3c(Cl)cccc3C(F)(F)F)noc2-c2ccco2)cc1", 86.5),
]

[in] Name the reported remaining at 1 h, 5 µM value associated with the molecule O=C(O)c1ccc(-c2nn(C(=O)c3c(Cl)cccc3C(F)(F)F)c3ccccc23)cc1
[out] 100
